# System: Bugula neritina larvae
# Measurement Protocol: Bioassay against bryozoan larvae; also: test concentration or dose not given here
# Assay type: in vivo
# Condition Summary: crude rank, best (1) to worst (8)
Counter-ions that a name gives are not always drawn.
Prevention of settlement of Bugula larvae of 5 or higher: criterion met. Under 5: criterion not met.

IN: Identify whether the reported Prevention of settlement of Bugula larvae of the following compound is 5 or greater: Cc1cc2c(s1)Nc1ccccc1N=C2N1CCN(C)CC1
OUT: criterion met

IN: Assess whether reported Prevention of settlement of Bugula larvae for CN(C)C(=O)C(CCN1CCC(O)(c2ccc(Cl)cc2)CC1)(c1ccccc1)c1ccccc1 [IMD, Loperamide hydrochloride] sits at 5 or higher.
OUT: criterion met

IN: Has Cc1nccn1CC1CCc2c(c3ccccc3n2C)C1=O (stereo not drawn) [ZFN, ondansetron hydrochloride] a recorded Prevention of settlement of Bugula larvae greater than or equal to 5?
OUT: criterion met

IN: Prevention of settlement of Bugula larvae >= 5 for CN[C@H]1CC[C@@H](c2ccc(Cl)c(Cl)c2)c2ccccc21.Cl [ZLT, sertraline hydrochloride] ?
OUT: criterion not met

IN: Is the recorded value of Prevention of settlement of Bugula larvae equal to or greater than 5 for this compound? CCCCCCCCCC(=O)OC1(c2ccc(Cl)cc2)CCN(CCCC(=O)c2ccc(F)cc2)CC1 [HDL, haloperidol decanoate]
OUT: criterion not met

IN: Given CN1CCN(CCCN2c3ccccc3Sc3ccc(Cl)cc32)CC1 [PCZ, prochlorperazine maleate] , state whether its Prevention of settlement of Bugula larvae is at least 5.
OUT: criterion not met

IN: I'd appreciate it if you could say whether CNCCC(Oc1ccc(C(F)(F)F)cc1)c1ccccc1 (stereo not drawn) [PZC, fluoxetine hydrochloride] has Prevention of settlement of Bugula larvae at least equal to 5.
OUT: criterion not met

IN: Answer whether Prevention of settlement of Bugula larvae of CN1CCN(CCCN2c3ccccc3Sc3ccc(C(F)(F)F)cc32)CC1 [TFZ, Trifluoperazine hydrochloride] is greater than or equal to 5.
OUT: criterion not met
